target: calcium channel (Cavia porcellus, UniProt O35505); construct: Longitudinal smooth muscle segments of 2 cm length were mounted under a resting tension; from tissue; host or cells: ileal longitudinal smooth muscle segments of male albino guinea pigs; assay: Calcium channel antagonist activity: inhibition of muscarinic receptor-mediated Ca2+-dependent contraction (carbachol) of guinea pig ileal longitudinal smooth muscle; assay type: cell-based; details: smooth muscle; read-out: IC50 as calcium antagonist in smooth muscle
Sequence (O35505 whole entry): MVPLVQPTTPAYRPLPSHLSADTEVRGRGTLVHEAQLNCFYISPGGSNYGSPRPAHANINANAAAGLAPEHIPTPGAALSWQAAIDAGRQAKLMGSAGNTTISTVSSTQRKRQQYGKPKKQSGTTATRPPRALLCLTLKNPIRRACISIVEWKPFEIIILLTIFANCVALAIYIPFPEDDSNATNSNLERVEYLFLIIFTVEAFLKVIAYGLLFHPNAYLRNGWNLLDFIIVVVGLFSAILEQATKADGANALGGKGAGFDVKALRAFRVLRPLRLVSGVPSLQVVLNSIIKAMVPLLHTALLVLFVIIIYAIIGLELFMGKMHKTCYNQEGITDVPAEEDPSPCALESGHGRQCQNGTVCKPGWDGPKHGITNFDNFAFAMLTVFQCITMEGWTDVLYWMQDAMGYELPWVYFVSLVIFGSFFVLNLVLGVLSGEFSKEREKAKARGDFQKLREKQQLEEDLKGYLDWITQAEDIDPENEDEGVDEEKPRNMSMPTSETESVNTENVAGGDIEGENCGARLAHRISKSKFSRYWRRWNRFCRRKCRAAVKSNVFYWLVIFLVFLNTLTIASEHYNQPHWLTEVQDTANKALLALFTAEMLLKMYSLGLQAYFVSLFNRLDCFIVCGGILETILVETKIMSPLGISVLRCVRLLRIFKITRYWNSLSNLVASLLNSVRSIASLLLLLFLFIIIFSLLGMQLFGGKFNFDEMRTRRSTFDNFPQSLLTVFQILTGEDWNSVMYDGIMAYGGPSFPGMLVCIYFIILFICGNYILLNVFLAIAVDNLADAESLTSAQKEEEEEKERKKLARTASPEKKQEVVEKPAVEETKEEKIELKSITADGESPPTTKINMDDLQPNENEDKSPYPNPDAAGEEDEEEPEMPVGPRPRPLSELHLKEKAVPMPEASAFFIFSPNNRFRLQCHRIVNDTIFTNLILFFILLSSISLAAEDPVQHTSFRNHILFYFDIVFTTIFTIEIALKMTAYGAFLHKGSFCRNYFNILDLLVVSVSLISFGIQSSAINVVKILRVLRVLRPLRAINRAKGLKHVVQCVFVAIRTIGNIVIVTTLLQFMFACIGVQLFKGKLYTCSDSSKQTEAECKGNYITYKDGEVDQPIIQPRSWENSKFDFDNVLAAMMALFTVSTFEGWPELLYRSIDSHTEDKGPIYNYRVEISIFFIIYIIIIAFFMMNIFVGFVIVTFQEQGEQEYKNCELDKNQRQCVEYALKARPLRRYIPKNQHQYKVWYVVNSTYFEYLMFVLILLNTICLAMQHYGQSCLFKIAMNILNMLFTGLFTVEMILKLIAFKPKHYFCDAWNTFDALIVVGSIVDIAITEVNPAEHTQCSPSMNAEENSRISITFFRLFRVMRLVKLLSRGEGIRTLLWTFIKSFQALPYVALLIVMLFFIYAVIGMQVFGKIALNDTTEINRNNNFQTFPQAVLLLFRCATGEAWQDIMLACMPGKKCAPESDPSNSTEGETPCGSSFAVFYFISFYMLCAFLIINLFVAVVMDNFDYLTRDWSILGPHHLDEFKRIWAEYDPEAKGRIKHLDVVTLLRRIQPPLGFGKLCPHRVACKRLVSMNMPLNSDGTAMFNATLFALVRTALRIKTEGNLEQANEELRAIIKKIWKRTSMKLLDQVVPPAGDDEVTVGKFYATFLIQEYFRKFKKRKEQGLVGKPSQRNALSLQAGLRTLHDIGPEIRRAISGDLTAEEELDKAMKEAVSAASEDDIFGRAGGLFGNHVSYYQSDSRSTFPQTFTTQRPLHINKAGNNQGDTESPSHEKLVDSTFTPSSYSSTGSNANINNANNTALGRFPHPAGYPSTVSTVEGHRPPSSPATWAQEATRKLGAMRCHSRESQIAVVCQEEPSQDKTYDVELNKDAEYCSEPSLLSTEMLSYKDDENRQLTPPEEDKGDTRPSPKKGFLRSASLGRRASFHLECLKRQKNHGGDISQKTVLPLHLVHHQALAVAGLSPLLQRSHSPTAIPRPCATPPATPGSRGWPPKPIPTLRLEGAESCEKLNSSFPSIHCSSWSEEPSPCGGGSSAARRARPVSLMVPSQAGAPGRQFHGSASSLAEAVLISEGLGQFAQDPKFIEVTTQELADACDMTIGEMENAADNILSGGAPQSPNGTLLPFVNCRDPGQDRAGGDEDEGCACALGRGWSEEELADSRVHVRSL
pIC50: −log10 of the molar value.
Measured Property: pIC50

INSERT INTO results (compound, measured_property, result_number) VALUES
  ('COC(=O)C1=C(C)NC(C)=C(C(=O)OCCCCCCCc2nc(C)cs2)C1c1cccc([N+](=O)[O-])c1 (stereo not shown) [Example 11]', 'pIC50', 8.49);
